- Tested on: C3H/He mice, Gardner lymphosarcoma 6C3HED ip, survival T/C
- assay.method.text: NCI In Vivo Anticancer Drug Screen. Data for tumor model Lymphosarcoma Gardner 6C3HED (intraperitoneal) in C3H/He mice
- details: endpoint: survival time, mean or median; dose: 10.0 mg/kg/injection; schedule: Q01DX010 (ip); vehicle: saline
Inconclusive results and toxic doses are left out. How the source made its calls: active means survival T/C of 150% or more; inactive means T/C below 125% in these data.
Allowed answers: active, inactive

Illustrative cases are given below, each with its answer.
[[record]]
compound = "CC[n+]1c(-c2ccccc2)c2cc(N)ccc2c2ccc(N)cc21"
label_value = "inactive"

[[record]]
compound = "Cn1cnc([N+](=O)[O-])c1Sc1ncnc2nc[nH]c12"
label_value = "inactive"

[[record]]
compound = "CCOC(=O)NP(=O)(N1CC1)N1CC1"
label_value = "active"

[[record]]
compound = "O=C(O)c1[nH]c(=O)[nH]c(=O)c1F"
label_value = "inactive"

[[record]]
compound = "N=C(N)SCc1c2ccccc2c(CSC(=N)N)c2ccccc12"
label_value = "active"


# input for lookup
// query Recorded test call requested for CN(Cc1cnc2nc(N)nc(N)c2n1)c1c(Cl)cc(C(=O)NC(CCC(=O)O)C(=O)O)cc1Cl (stereo unspecified)
// result active

* * *

- System: C3H/He mice, Gardner lymphosarcoma 6C3HED ip, survival T/C
- assay.method.text: NCI In Vivo Anticancer Drug Screen. Data for tumor model Lymphosarcoma Gardner 6C3HED (intraperitoneal) in C3H/He mice
- details: endpoint: survival time, mean or median; dose: 5.0 mg/kg/injection; schedule: Q01DX010 (ip); vehicle: saline
Inconclusive results and toxic doses are left out. How the source made its calls: active means survival T/C of 150% or more; inactive means T/C below 125% in these data.
Your answer must be one of the following: active, inactive

// known answers, use as guide
[[record]]
compound = "COc1cc(-c2ccc(Nc3ccccc3C(=O)O)c(OC)c2)ccc1N"
label_value = "inactive"

[[record]]
compound = "OCCOCCN1CCN(CCCN2c3ccccc3Sc3ccc(C(F)(F)F)cc32)CC1"
label_value = "inactive"

[[record]]
compound = "O=c1[nH]cc(F)c(=O)[nH]1"
label_value = "inactive"


// query Returns: the outcome recorded for `N#[N+]c1cnc([O-])[nH]c1=O` in this assay.
// result inactive

// query For this compound, state the assay outcome: `CC[n+]1c(-c2ccccc2)c2cc(N)ccc2c2ccc(N)cc21`
// result inactive

// query I would be grateful if you could indicate the recorded call for CC1CCOS(=O)O1 (configuration not stated) .
// result inactive

// query Returns: the outcome recorded for `N=C(N)SCc1c2ccccc2c(CSC(=N)N)c2ccccc12` in this assay.
// result active

* * *

- Tested on: C3H/He mice, Gardner lymphosarcoma 6C3HED ip, survival T/C
- assay.method.text: NCI In Vivo Anticancer Drug Screen. Data for tumor model Lymphosarcoma Gardner 6C3HED (intraperitoneal) in C3H/He mice
- details: endpoint: survival time, mean or median; dose: 25.0 mg/kg/injection; schedule: Q01DX010 (ip); vehicle: saline
Toxic doses and inconclusive results are not listed. The calls were made as follows: active = survival T/C of 150% or more; inactive = T/C below 125% in these data.
Outcome (select one): active, inactive

[[record]]
compound = "CCN(CC)CCCC(C)Nc1c2ccc(Cl)cc2nc2ccc(OC)cc12 (stereo not drawn)"
study_system = "C3H/He mice, Gardner lymphosarcoma 6C3HED ip, survival T/C"
label_value = "inactive"


// query GET /call?item= Nc1nc(=O)n(C2CC(O)C(CO)O2)cc1Br (stereo not drawn) returns the recorded outcome of this test.
// result inactive

// query Name the outcome recorded for COC1C(OC(=O)/C=C/C=C/C=C/C=C/C(=O)O)CCC2(CO2)C1C1(C)OC1CC=C(C)C (stereo not drawn) in the assay.
// result inactive
